- Tgt: human KDR (VEGFR2) on cells (human, UniProt P35968 20-1356)
- Sequence (P35968 20-1356): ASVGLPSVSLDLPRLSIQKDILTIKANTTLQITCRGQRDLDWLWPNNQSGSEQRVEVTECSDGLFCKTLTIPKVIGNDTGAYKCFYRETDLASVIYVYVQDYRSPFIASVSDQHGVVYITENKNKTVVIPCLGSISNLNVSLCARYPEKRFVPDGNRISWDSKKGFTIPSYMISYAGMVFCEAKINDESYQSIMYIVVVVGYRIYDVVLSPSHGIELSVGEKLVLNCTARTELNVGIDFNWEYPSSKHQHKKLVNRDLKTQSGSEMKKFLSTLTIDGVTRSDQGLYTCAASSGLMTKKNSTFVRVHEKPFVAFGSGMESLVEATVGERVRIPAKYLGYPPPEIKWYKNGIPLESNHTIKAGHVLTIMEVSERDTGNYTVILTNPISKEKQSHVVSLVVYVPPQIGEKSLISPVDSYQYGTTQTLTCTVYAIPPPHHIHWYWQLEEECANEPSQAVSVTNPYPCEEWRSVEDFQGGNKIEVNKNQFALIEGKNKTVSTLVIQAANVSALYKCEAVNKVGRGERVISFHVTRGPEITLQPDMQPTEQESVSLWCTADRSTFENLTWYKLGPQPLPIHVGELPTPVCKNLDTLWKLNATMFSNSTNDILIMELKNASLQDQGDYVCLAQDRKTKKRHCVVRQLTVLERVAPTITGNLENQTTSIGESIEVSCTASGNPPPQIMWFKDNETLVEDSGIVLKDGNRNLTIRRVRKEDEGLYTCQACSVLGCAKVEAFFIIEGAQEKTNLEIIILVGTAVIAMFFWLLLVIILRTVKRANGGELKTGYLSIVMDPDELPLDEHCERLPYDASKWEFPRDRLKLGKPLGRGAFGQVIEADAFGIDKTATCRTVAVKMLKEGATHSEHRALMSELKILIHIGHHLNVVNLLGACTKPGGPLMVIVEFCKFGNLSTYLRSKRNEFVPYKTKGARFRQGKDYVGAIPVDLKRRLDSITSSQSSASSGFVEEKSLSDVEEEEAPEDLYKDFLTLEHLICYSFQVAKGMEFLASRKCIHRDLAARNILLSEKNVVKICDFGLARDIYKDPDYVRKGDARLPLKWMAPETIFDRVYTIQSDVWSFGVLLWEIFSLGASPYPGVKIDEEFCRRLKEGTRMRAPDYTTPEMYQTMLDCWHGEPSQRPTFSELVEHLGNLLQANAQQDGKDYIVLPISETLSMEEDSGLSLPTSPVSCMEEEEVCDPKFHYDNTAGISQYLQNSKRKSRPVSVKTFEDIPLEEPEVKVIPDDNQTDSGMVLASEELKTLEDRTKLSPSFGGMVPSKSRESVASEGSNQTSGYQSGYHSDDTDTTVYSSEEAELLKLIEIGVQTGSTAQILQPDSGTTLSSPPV
- Experiment: cell-based or functional assay; also: test concentration or dose not given here
Assay readout: % Inhibition of VEGF165-mediated pTyr Activity, n = 1 (%)
# unit: % | format: bare number

{"columns": ["Binder", "Unit symbol", "Observed value"],
 "data": [
  ["anti-KDR monoclonal antibody 33B1 (antibody, V domains shown, Fully human mAb from XenoMouse (IgG2 or IgG4 strain); hybridoma supernatant) VH: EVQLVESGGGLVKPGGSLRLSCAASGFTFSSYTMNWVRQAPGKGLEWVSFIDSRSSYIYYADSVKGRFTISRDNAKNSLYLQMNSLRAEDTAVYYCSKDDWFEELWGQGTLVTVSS VL: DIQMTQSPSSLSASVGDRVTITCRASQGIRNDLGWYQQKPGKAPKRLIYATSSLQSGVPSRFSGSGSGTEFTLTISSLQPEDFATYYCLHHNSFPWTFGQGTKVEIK", "%", 76],
  ["anti-KDR monoclonal antibody 1G6 (antibody, V domains shown, Fully human mAb from XenoMouse (IgG2 or IgG4 strain); tested here as hybridoma supernatant) VH: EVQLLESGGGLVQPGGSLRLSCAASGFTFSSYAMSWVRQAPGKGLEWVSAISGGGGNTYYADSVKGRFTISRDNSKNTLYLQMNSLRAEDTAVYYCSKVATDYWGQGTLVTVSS VL: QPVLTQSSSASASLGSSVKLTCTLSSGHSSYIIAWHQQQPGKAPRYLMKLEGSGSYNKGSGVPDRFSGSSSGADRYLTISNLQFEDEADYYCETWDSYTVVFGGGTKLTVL", "%", 89],
  ["anti-KDR monoclonal antibody 21H6 (antibody, V domains shown, Fully human mAb from XenoMouse; hybridoma supernatant) VH: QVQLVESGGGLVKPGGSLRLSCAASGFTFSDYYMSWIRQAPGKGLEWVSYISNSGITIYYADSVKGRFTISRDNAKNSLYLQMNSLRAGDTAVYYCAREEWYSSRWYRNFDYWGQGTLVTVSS VL: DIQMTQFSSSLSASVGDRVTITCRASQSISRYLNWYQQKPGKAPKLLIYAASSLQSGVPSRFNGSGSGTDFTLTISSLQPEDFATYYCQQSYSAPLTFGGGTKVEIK", "%", 85],
  ["anti-KDR monoclonal antibody 29H3 (antibody, V domains shown, Fully human mAb from XenoMouse (IgG2 or IgG4 strain); hybridoma supernatant) VH: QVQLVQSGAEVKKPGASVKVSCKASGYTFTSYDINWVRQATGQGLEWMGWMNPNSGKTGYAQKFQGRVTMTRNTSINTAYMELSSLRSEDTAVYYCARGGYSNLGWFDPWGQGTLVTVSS VL: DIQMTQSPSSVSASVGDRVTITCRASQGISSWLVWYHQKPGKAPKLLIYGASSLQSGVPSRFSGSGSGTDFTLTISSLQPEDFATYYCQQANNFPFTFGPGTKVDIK", "%", 89]
]}

Lab book: % Inhibition of VEGF165-mediated pTyr Activity, n = 1 of anti-KDR monoclonal antibody 32G7 (antibody, V domains shown, Fully human mAb from XenoMouse (IgG2 or IgG4 strain); hybridoma supernatant) VH: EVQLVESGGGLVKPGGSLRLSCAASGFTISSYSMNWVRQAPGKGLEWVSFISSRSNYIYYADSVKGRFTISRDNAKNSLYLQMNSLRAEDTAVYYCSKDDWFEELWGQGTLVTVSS VL: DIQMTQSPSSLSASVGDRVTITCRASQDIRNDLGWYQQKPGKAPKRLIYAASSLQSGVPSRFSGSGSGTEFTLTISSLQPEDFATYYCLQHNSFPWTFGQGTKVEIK noted as 73
